Where do the numbers come from? From ChEMBL document CHEMBL4007467.

# system.under.test: CYP2C9 (Homo sapiens)
# Sequence (P11712 whole entry): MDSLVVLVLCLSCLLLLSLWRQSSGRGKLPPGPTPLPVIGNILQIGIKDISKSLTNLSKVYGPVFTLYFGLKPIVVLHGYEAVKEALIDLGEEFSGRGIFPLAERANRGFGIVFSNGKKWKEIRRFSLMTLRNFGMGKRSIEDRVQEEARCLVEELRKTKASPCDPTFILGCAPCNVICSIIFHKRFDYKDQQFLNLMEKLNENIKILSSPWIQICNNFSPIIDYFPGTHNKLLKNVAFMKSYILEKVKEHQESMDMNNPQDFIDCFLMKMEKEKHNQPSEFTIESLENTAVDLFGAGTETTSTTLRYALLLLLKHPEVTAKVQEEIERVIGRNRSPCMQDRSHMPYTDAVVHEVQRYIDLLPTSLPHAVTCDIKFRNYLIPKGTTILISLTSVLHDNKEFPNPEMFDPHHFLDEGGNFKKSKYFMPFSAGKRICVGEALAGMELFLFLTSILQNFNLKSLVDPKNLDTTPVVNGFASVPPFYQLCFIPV
# experiment.summary: Inhibition of CYP2C9 in human liver microsomes assessed as enzyme-mediated metabolite formation at 3 uM using diclofenac as substrate preincubated for 20 mins followed by substrate addition measured after 30 mins in presence of NADPH by LC-MS/MS analysis relative to control
# Format: ADME
# Design: scale not given: the % may be the effect or the level left
# test.context: probe diclofenac, read-out: Activity
measured.property: activity at 0.5 h, 3 µM (%)
Please reply with the bare figure in % and do not write the unit itself.

Incoming: # return recorded activity at 0.5 h, 3 µM for entry `CCCCCCCC(=O)CCc1ccc(O)c(OC)c1`
Outgoing: 78.8

====

Please respond with reported pIC50 for every item in the list.
# system.under.test: Cytochrome P450 2C8 (Homo sapiens, UniProt P10632)
# Sequence (P10632 whole entry): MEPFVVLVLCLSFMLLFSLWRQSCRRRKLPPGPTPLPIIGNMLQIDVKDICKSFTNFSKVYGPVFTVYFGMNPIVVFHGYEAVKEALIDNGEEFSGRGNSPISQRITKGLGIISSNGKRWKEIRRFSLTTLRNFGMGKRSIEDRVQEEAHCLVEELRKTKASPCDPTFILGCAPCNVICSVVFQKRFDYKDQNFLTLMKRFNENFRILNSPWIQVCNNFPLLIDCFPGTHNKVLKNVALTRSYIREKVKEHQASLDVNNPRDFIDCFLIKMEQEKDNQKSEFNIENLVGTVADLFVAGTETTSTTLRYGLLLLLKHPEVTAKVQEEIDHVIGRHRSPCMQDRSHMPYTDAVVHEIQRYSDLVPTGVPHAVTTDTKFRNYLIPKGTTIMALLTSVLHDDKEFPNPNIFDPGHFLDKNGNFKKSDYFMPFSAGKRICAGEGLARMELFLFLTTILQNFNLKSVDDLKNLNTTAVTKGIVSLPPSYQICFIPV
# experiment.summary: Inhibition of CYP2C8 in human liver microsomes using amodiaquin as substrate preincubated for 10 mins followed by NADPH addition measured after 10 mins
# Assay type: ADME
Please keep in mind that pIC50 is minus log10 of the molar concentration; only the number is needed.

Incoming: Specify measured pIC50 for `CCCCCCC[C@H](O)CC(=O)CCc1ccc(O)c(OC)c1` .
Outgoing: 5.66

Incoming: Given `CCCCC/C=C/C(=O)CCc1ccc(O)c(OC)c1` , respond with its pIC50.
Outgoing: 5.54

Incoming: Look up and state reported pIC50 for `CCCCCCCCC[C@H](O)CC(=O)CCc1ccc(O)c(OC)c1`
Outgoing: 5.70

====

# system.under.test: CYP1A2 (Homo sapiens)
# Sequence (P05177 whole entry): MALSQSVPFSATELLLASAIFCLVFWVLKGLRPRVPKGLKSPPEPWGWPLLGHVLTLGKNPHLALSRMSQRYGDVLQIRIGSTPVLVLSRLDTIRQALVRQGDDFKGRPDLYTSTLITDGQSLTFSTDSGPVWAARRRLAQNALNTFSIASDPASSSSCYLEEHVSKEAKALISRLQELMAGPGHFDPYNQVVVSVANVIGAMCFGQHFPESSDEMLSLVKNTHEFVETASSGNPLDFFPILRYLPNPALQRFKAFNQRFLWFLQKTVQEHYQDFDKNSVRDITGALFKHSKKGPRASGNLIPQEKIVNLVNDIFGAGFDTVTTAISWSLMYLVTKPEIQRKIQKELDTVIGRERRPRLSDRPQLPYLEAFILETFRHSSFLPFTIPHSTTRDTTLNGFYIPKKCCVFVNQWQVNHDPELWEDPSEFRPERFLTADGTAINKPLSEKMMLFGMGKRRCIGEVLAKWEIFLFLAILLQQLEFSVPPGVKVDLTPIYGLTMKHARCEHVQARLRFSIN
# experiment.summary: Inhibition of CYP1A2 in human liver microsomes assessed as enzyme-mediated metabolite formation at 0.1 uM using phenacetin as substrate preincubated for 20 mins followed by substrate addition measured after 30 mins in presence of NADPH by LC-MS/MS analysis relative to control
# Format: ADME
# Set-up: scale not given: the % may be the effect or the level left
# test.context: probe phenacetin, read-out: Activity
measured.property: activity at 0.5 h, 0.1 µM (%)
Could you give me the number in %? Just the number is fine.

Incoming: Return value of activity at 0.5 h, 0.1 µM for input `CCCCCCCC(=O)CCc1ccc(O)c(OC)c1` , no commentary.
Outgoing: 97.2

====

# system.under.test: CYP2B6 (Homo sapiens, UniProt P20813)
# Sequence (P20813 whole entry): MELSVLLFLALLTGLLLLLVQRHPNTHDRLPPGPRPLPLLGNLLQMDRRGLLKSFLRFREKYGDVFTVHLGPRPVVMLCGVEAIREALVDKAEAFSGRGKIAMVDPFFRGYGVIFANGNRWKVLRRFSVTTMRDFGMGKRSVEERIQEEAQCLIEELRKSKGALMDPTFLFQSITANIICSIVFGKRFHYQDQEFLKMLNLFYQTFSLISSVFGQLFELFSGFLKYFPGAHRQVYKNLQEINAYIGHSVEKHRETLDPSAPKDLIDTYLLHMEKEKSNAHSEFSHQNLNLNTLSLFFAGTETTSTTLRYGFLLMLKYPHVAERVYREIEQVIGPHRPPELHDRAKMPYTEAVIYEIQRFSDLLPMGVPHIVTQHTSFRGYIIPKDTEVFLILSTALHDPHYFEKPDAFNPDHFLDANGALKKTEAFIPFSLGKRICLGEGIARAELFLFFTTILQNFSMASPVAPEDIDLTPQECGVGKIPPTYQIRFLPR
# experiment.summary: Inhibition of CYP2B6 in human liver microsomes assessed as enzyme-mediated metabolite formation at 10 uM using bupropion as substrate incubated for 5 mins followed by NADPH addition measured after 30 mins by LC-MS/MS analysis relative to control
# Assay type: ADME
# Parameters: scale not given: the % may be the effect or the level left
# test.context: probe bupropion, read-out: Activity
measured.property: activity at 0.5 h, 10 µM (%)
The response must be a number in % with no trailing unit.

Incoming: Provide CYP2B6 (Homo sapiens, UniProt P20813) activity at 0.5 h, 10 µM reading for `CCCCCCCC(=O)CCc1ccc(O)c(OC)c1` .
Outgoing: 53.9

====

# system.under.test: CYP2C19 (Homo sapiens, UniProt P33261)
# Sequence (P33261 whole entry): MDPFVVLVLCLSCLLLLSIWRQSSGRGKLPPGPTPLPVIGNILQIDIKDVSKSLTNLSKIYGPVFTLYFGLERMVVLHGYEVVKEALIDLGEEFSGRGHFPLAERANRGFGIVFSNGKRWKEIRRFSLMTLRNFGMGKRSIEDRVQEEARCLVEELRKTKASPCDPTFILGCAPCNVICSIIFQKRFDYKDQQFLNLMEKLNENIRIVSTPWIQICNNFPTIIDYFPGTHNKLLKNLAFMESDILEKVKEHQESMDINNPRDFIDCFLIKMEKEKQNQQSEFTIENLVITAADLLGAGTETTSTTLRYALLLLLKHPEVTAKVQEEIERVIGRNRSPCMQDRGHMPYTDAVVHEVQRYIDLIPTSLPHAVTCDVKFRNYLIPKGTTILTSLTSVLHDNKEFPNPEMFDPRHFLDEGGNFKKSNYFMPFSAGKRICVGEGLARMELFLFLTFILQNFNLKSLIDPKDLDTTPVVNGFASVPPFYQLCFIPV
# experiment.summary: Inhibition of CYP2C19 in human liver microsomes assessed as enzyme-mediated metabolite formation at 10 uM using (S)-mephenytoin as substrate incubated for 5 mins followed by NADPH addition measured after 30 mins by LC-MS/MS analysis relative to control
# Format: ADME
# Design: scale not given: the % may be the effect or the level left
# test.context: probe (S)-mephenytoin, read-out: Activity
measured.property: activity at 0.5 h, 10 µM (%)
Number in %, nothing else.

Incoming: Give the reported value of activity at 0.5 h, 10 µM for this record: `CCCCCCCC(=O)CCc1ccc(O)c(OC)c1`
Outgoing: 51.5

====

# system.under.test: CYP2C8 (Homo sapiens, UniProt P10632)
# experiment.summary: Inhibition of CYP2C8 in human liver microsomes assessed as enzyme-mediated metabolite formation at 1 uM using paclitaxel as substrate preincubated for 20 mins followed by substrate addition measured after 30 mins in presence of NADPH by LC-MS/MS analysis relative to control
# Format: ADME
# Design: scale not given: the % may be the effect or the level left
# test.context: probe paclitaxel, read-out: Activity
measured.property: activity at 0.5 h, 1 µM (%)
Express it in %; write the number only.

Incoming: Kindly indicate its recorded activity at 0.5 h, 1 µM. Item: `CCCCCCCC(=O)CCc1ccc(O)c(OC)c1`
Outgoing: 61.5

====

# system.under.test: CYP2C19 (Homo sapiens)
# experiment.summary: Inhibition of CYP2C19 in human liver microsomes assessed as enzyme-mediated metabolite formation at 3 uM using (S)-mephenytoin as substrate preincubated for 20 mins followed by substrate addition measured after 30 mins in presence of NADPH by LC-MS/MS analysis relative to control
# Type: ADME
# Parameters: scale not given: the % may be the effect or the level left
# test.context: probe (S)-mephenytoin, read-out: Activity
measured.property: activity at 0.5 h, 3 µM (%)
Respond numerically; units are % and should not be typed.

Incoming: Output measured activity at 0.5 h, 3 µM for this item: `CCCCCCCC(=O)CCc1ccc(O)c(OC)c1`
Outgoing: 67.6

====

# system.under.test: CYP2B6 (Homo sapiens)
# experiment.summary: Inhibition of CYP2B6 in human liver microsomes assessed as enzyme-mediated metabolite formation at 0.3 uM using bupropion as substrate preincubated for 20 mins followed by substrate addition measured after 30 mins in presence of NADPH by LC-MS/MS analysis relative to control
# Assay type: ADME
# Parameters: scale not given: the % may be the effect or the level left
# test.context: probe bupropion, read-out: Activity
measured.property: activity at 0.5 h, 0.3 µM (%)
# output: bare number, implied unit %

Incoming: Check the records and state activity at 0.5 h, 0.3 µM for `CCCCCCCC(=O)CCc1ccc(O)c(OC)c1`
Outgoing: 81.3

====

# system.under.test: CYP2C9 (Homo sapiens)
# experiment.summary: Inhibition of CYP2C9 in human liver microsomes assessed as enzyme-mediated metabolite formation at 0.3 uM using diclofenac as substrate incubated for 5 mins followed by NADPH addition measured after 30 mins by LC-MS/MS analysis relative to control
# Assay type: ADME
# Design: scale not given: the % may be the effect or the level left
# test.context: probe diclofenac, read-out: Activity
measured.property: activity at 0.5 h, 0.3 µM (%)
Provide the reading as a plain figure in %.

Incoming: Provide measured activity at 0.5 h, 0.3 µM value, entry: `CCCCCCCC(=O)CCc1ccc(O)c(OC)c1`
Outgoing: 93.6
